System: U-251
MEASUREMENT_NOTES: Growth inhibition of human U251 cells after 48 hrs by sulforhodamine B assay
Format: functional
TEST_CONDITIONS: U-251, 48 h
So basically, if GI50 comes in under 7 µM it's 1, and if it's 7 µM or more it's 0.

See these solved cases before continuing.
- STRUCTURE: "CCOC(=O)/C(=C/N1CCN(C(=O)c2ccco2)C1=S)C(=O)c1ccccc1"
  EXPERIMENTAL_SYSTEM: "U-251"
  CLASS_ASSIGNMENT: 0
- STRUCTURE: "O=C(c1ccc(Cl)cc1Cl)N1CCN(C(=O)c2ccc(Cl)cc2Cl)C1=S"
  EXPERIMENTAL_SYSTEM: "U-251"
  CLASS_ASSIGNMENT: 0
- STRUCTURE: "O=C(c1ccco1)N1CCN(C(=O)c2ccco2)C1=S"
  EXPERIMENTAL_SYSTEM: "U-251"
  CLASS_ASSIGNMENT: 0
- STRUCTURE: "COC(=O)/C(=C\\N1CCN(C(=O)c2ccco2)C1=S)C(C)=O"
  EXPERIMENTAL_SYSTEM: "U-251"
  CLASS_ASSIGNMENT: 1
- STRUCTURE: "CC(=O)C(=CN1CCN(C(=O)c2ccco2)C1=S)C(C)=O"
  EXPERIMENTAL_SYSTEM: "U-251"
  CLASS_ASSIGNMENT: 1

Does "N#C/C(=C\N1CCN(C(=O)c2ccco2)C1=S)C(N)=O" have GI50 strictly under 7 µM? 0

Does "N#CC(C#N)=CN1CCN(C(=O)c2ccco2)C1=S" have GI50 strictly under 7 µM? 1

Does "O=CN1CCN(C(=O)c2ccco2)C1=S" have GI50 strictly under 7 µM? 0

Does "N#C/C(=C\N1CCN(C(=O)c2ccco2)C1=S)C(=O)c1ccccc1" have GI50 strictly under 7 µM? 0
